Assay: Counterscreen qHTS for Inhibitors of Tau Fibril Formation, Fluorescence Polarization; note: nearly all actives have a fitted effect of over 55% in size; note: potency is the fitted concentration of half-maximal effect; tags give direction and shape of the fitted curve or compound fluorescence and quenching
Settings: tau K18 P301L Alexa594 fluorescence, heparin fibrillization; series mostly up to 57.7 µM
Hit rate of the full screen: of about 280,000 compounds, about 2,600 (0.93%) were called active. Not shown: some 8% with an inconclusive outcome. The sample holds actives, similar compounds and a random draw of the others, so the mix is not that of the screen.
measured_attribute: Potency

compound	assay_result
CCN(c1ccc(Cl)cc1)S(=O)(=O)c1nnc(NC(=O)c2ccco2)s1	inactive
CC(C)(C)c1ccc(NC(=O)NCc2ccco2)cc1	inactive
Cc1cccc(OCCSc2nc3ccccc3n2CC(=O)N2CCCCC2)c1C	inactive
CC(C)(C)c1ccc(C(=O)NCCC(=O)NCc2ccco2)cc1	14.1 µM [quencher] (active)
O=C1CCN(C(=S)NCCc2ccccc2)CC1	inactive
O=C(Cc1ccc(Cl)cc1)NCC(c1cccs1)S(=O)(=O)c1ccc(Cl)cc1 (stereo unspecified)	inactive
Oc1cc2c(cc1O)CN(C(=S)NCCc1ccc(Cl)cc1)CCC2	10 µM [quencher] (active)
CCOC(=O)/C(=N\Nc1ccccc1[N+](=O)[O-])c1csc(Nc2ccccc2)n1	7.08 µM [quencher] (active)
Nc1ccc(N=Nc2ccccc2Cl)c(N)n1	15.8 µM [quencher] (active)
CCc1ccccc1NC(=O)N1CCN(C(=O)c2nsc3ccccc23)CC1	inactive
O=C1c2ccccc2C(=O)N1CCCc1nc(-c2ccccc2)no1	inactive

---

Assay: Counterscreen qHTS for Inhibitors of Tau Fibril Formation, Fluorescence Polarization; note: nearly all actives have a fitted effect of over 55% in size
Conditions: tau K18 P301L Alexa594 fluorescence, heparin fibrillization; series mostly up to 57.7 µM
Hit rate of the full screen: of about 280,000 compounds, about 2,600 (0.93%) were called active. Inconclusive results (about 8%) are left out. Calls follow the shape of the dose curve; as a rule, active = well fitted curve in the direction sought with a large enough effect; inconclusive = small, poorly fitted or top-dose-only effect; inactive = flat fitted curve, though single readings scatter. The full list was thinned out, with actives kept by preference.
Outcome codes: yes (active), no (inactive)

smiles_text	group
Cc1cc(NC(=O)c2cccc(Cl)c2)ccc1-c1cc2ccccc2oc1=O	no
COc1ccc(Nc2ncnc3ccc(OC)cc23)cc1	no
CCCN(C(=O)Cn1ncc2c([nH]c3ccc(C)cc32)c1=O)c1ccccc1C	no
COc1ccc(OC)c(Nc2nc(-c3ccc(O)c(O)c3)cs2)c1	yes
COc1ccccc1Nc1ncnc2c1oc1ccccc12	no
Cc1ccc(-n2ncc(C(=O)N(C)Cc3ccccc3)c2-n2cccc2)cc1	no
Cc1cc([N+](=O)[O-])ccc1NC(=O)c1ccc(NC(=O)C(C)C)cc1	no
Cc1ccc2nc(/C(C#N)=C/c3ccc(-c4ccc(C(=O)OC(C)C)cc4)o3)[nH]c2c1	no
CN(c1ccc(OCC(=O)NC2=NCCS2)cc1)S(=O)(=O)c1ccc(F)cc1	no
O=C(Cn1cc(SCc2ccccc2)c2ccccc21)N1CCCCC1	no
O=[N+]([O-])c1cc(S(=O)(=O)Nc2cccc(Cl)c2)ccc1N=Nc1c(O)[nH]c2ccccc12	yes
CCOc1ccc(CCNC(=O)c2ccc3c(c2)sc2nc(-c4ccc(F)cc4)cn23)cc1OCC	no
O=C(Nc1c2c(nc3ccccc13)CCCC2)c1ccccc1Br	no
COc1ccc(-c2csc(NC(=O)c3ccc(N4C(=O)CCC4=O)cc3)n2)cc1OC	no
CC(=O)Nc1nc(C)c(-c2csc(Nc3ccc(S(N)(=O)=O)cc3)n2)s1	no
Cn1c(=O)c2c(nc(SCC(=O)Nc3ccc(F)cc3)n2Cc2ccccc2)n(C)c1=O	no
CC(=O)Nc1ccc(Nc2c3ccccc3nc3ccccc23)cc1	no
CCN(C(=O)CSc1nnc(C)n2c1cc1occc12)c1ccccc1	no
COc1ccc(-c2nc3scc(CCNS(=O)(=O)c4cc(F)ccc4OC)n3n2)cc1OC	no
N#C/C(=C/c1ccc(N2CCCCC2)o1)C(=O)NCCc1c[nH]c2ccccc12	yes
CCOC(=O)c1ccc(NC(=O)c2c(NCc3cccc(OC)c3)sc3c2CCC3)cc1	no

---

Assay: Counterscreen qHTS for Inhibitors of Tau Fibril Formation, Fluorescence Polarization; note: nearly all actives have a fitted effect of over 55% in size
Details: tau K18 P301L Alexa594 fluorescence, heparin fibrillization; series mostly up to 57.7 µM
About 2,600 (0.93%) of roughly 280,000 compounds were called active. About 8% were inconclusive and are not listed. Calls follow the shape of the dose curve; as a rule, active = well fitted curve in the direction sought with a large enough effect; inconclusive = small, poorly fitted or top-dose-only effect; inactive = flat fitted curve, though single readings scatter. This excerpt belongs to a sample that is enriched for actives.
Outcome codes: yes (1) = active, no (0) = inactive

compound	group
COC(=O)c1[nH]c2ccccc2c1NS(=O)(=O)c1ccc(OC)cc1OC	no (0)
Cc1cccc(N2CCN(C(=O)CCSCc3ccccc3F)CC2)c1C	no (0)
COc1ccc(OC)c(NC(=O)C2CCCN(S(=O)(=O)c3ccc4c(c3)CCCC(=O)N4)C2)c1 (centres undefined)	no (0)
O=C(CCN1c2ccccc2Sc2ccccc21)Nc1ccccc1	yes (1)
CSc1nc(-c2ccccc2)nc(C(Cl)Cl)n1	no (0)
COc1ccccc1-c1c(C)nn2c(C)c(C(C)=O)cnc12	no (0)
CCNC(=O)N1c2ccccc2Sc2ccccc21	no (0)
COc1ccccc1-c1n[nH]c2c1[C@H](C)CC[C@H]2C(C)C	no (0)
Fc1ccc(C(Nc2ccc(Cl)c(C(F)(F)F)c2)c2nnc(-c3ccccc3)o2)cc1 (centres undefined)	no (0)
C=C(C)COc1ccc(-c2n[nH]c(C)c2-c2ccccc2OC)c(O)c1	yes (1)
Cc1cc(Nc2ccccc2)n(CCC#N)n1	no (0)
Cc1cc(NC(=O)Nc2ccccc2)n(-c2ccccc2)n1	no (0)
CCn1c(-c2cc(OC)ccc2OC)csc1=Nc1c(C)n(C)n(-c2ccccc2)c1=O	no (0)
Cc1ccc(C)c(CNC(=O)c2cc3ccccn3n2)c1	no (0)

---

Assay: Counterscreen qHTS for Inhibitors of Tau Fibril Formation, Fluorescence Polarization; note: nearly all actives have a fitted effect of over 55% in size; note: potency is the fitted concentration of half-maximal effect; tags give direction and shape of the fitted curve or compound fluorescence and quenching
Conditions: tau K18 P301L (four-repeat tau fragment) Alexa594 fluorescence, heparin fibrillization; series mostly up to 57.7 µM
Among all 280,000 compounds or so, about 2,600 (0.93%) were called active. Not shown: some 8% with an inconclusive outcome. Shown is part of a subset that was picked to be rich in actives.

molecule	Potency
CCc1cnc2c(c1SCC(=O)c1ccccc1)c(=O)n(C)c(=O)n2C	inactive
CCCn1c2ccccc2c2cnn(CC(=O)N(C)c3ccccc3CC)c(=O)c21	inactive
Oc1ccc(/C=N/Nc2nc(-c3ccccc3F)nc3ccccc23)c(O)c1	5.01 µM [quencher] (active)
CC1CCC(N2CC(=O)N(CCC3=CCCCC3)C(c3ccc(F)cc3)C2=O)CC1 (stereo not given)	inactive
Cc1cccc(C2CC(=O)Oc3c2c(=O)n(C)c2ccccc32)c1 (stereo not given)	inactive
CC(C)Cn1c(C2CC(=O)N(c3ccccc3Cl)C2)nc2ccccc21 (stereo not given)	inactive
CCSc1ncnc2c(C#N)c3n(c12)CCCCC3	inactive
CC(=O)N1CCCc2cc(S(=O)(=O)N3CCC(C(=O)NCc4ccc(F)cc4)CC3)ccc21	inactive
Cc1cc(N/N=C/c2ccccc2F)c2ccccc2n1	inactive
Cc1cccc(NC(=O)c2ccc(F)c(S(=O)(=O)N(C)C3CCCCC3)c2)c1	inactive
CN1CCN(C2(CNC(=O)COc3ccc(C(C)(C)C)cc3)CCCCC2)CC1	inactive
COc1ccccc1Nc1c2c(nc3ccc(NC(=O)/C=C/c4cc(OC)c(OC)c(OC)c4)cc13)CCCC2	10 µM [quencher] (active)
O=C(Nc1ccc(S(=O)(=O)N2CCC(c3nc4ccccc4s3)CC2)cc1)c1ccccc1F	inactive
CC1=C(C(=O)OCC(C)C)C(c2ccc(OCc3ccccc3)cc2)N2C(=O)CCSC2=N1 (stereo not given)	inactive
Cn1nnc2c(N3CCN(c4ccccc4)CC3)ncnc21	inactive
CCC(=O)Nc1c(C(=O)N2CCN(c3ccc(F)cc3)CC2)oc2ccccc12	inactive
COc1ccc(CNc2nc(-c3ccc(Cl)cc3)nn2C(=O)c2ccccc2)cc1	inactive
CCOc1ccccc1C(=O)NCc1ccc2c(c1)CCN2C(=O)c1ccc(F)cc1	inactive
CCOc1cccc(NC(=O)CC#N)c1	inactive
CCCCCn1c(=O)[nH]c2cc(C(=O)Nc3cc(C)cc(C)c3)ccc2c1=O	inactive
COc1ccc(C(=O)NCC(c2ccc(N(C)C)cc2)N2CCc3ccccc32)c(OC)c1 (stereo not given)	inactive
O=C(Nc1ccccc1F)C(c1ccccc1)N1Cc2ccccc2C1=O (stereo not given)	inactive
NC(=O)c1ccc(NC(=O)COC(=O)c2c3c(nc4ccccc24)/C(=C\c2ccc4c(c2)OCO4)CCC3)cc1	8.91 µM [quencher] (active)
O=C(Nc1ccc2oc(-c3ccc4ccccc4c3)nc2c1)c1cccs1	inactive
Cc1cccc(NC(=O)c2cccc(C(F)(F)F)c2)c1	inactive
CCN(CCCNC(=O)c1ccc(Sc2ccc(C)cc2)c(NC(C)=O)c1)c1cccc(C)c1	inactive
O=[N+]([O-])c1cc(Cl)cc(/C=N/NC(=S)Nc2cc(S(=O)(=O)N3CCOCC3)ccc2Cl)c1O	8.91 µM [quencher] (active)
CCOc1cccc(NC(=O)CSc2ncc(-c3ccc(Cl)cc3)[nH]2)c1	11.2 µM [quencher] (active)
Cc1cccc(NC(=O)CSc2ncc(-c3ccccc3)[nH]2)c1C	inactive
O=C(CN1CCN(c2ccc(O)cc2)CC1)Nc1cc(S(=O)(=O)N2CCOCC2)ccc1Cl	inactive
CCSC1=C(C#N)C(=O)n2c1cc1c2CCCC1	31.6 µM [quencher] (active)
Cc1ccc(Cl)cc1NC(=O)CCS(=O)(=O)c1ccc(Br)s1	inactive
O=C(Nc1ccccc1)Nc1nc2ccccc2s1	inactive
CCc1cc2c(cc3c(=O)n(CC(=O)N4CCN(c5cc(Cl)ccc5C)CC4)ncn32)s1	inactive
CCCCN(CC)CCCNC(=O)c1nn(C)c2c1CSc1ccccc1-2	inactive
